target: Induced myeloid leukemia cell differentiation protein Mcl-1 (Homo sapiens); experiment: Binding affinity to Mcl-1 after 30 mins by florescence polarization assay
Sequence (Q07820 whole entry): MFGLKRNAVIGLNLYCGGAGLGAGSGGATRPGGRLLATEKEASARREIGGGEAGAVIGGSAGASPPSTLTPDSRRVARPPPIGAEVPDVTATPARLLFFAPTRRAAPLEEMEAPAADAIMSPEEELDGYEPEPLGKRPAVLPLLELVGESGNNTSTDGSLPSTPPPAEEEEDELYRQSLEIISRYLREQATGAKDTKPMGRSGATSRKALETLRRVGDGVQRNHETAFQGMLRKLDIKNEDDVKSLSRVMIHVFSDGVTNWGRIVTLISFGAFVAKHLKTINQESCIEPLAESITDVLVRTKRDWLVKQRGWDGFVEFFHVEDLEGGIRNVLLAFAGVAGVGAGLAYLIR
experimental.endpoint: Ki
Answer shape: numeric part, then the unit.

Could you tell me which Ki is on file for O=C1c2ccccc2C(=O)c2c(O)cc(O)cc21 [XANTHOPURPURIN] ?
2270 nM

Moving on to "O=C1c2ccccc2C(=O)c2c1cc(O)c(O)c2O"
270 nM

Would you mind doing "Cc1ccc(Sc2ccc3c(c2)C(=O)c2cc(O)c(O)cc2C3=O)cc1" as well?
38 nM

Another compound to check: "CC(C)c1ccc(Sc2ccc3c(c2)C(=O)c2cc(O)c(O)cc2C3=O)cc1"
13 nM

Same read-out for "O=C1c2ccc(Sc3ccccc3)cc2C(=O)c2cc(O)c(O)cc21" ?
53 nM

Now this one: "O=C1c2ccc(Sc3ccc(Br)cc3)cc2C(=O)c2cc(O)c(O)cc21"
56 nM

Follow-up entry: "O=C1c2ccccc2C(=O)c2cc(O)c(O)cc21"
312 nM

Note, next up: "O=C1c2ccc(Br)cc2C(=O)c2cc(O)c(O)cc21"
107 nM

Next compound: O=C1c2ccccc2C(=O)c2c1ccc(O)c2O [ATHRAQUINONES A]
1620 nM

---

Reported Ki values, Apoptosis regulator Bcl-2 (Homo sapiens).
Write the value in nM as a bare number.

Form: Entry = "O=C1c2ccc(Sc3ccc(Br)cc3)cc2C(=O)c2cc(O)c(O)cc21" | System = Apoptosis regulator Bcl-2 (Homo sapiens) | Ki = ____
87

Now consider "O=C1c2ccc(Br)cc2C(=O)c2cc(O)c(O)cc21" .
132

Quick one: "Cc1ccc(Sc2ccc3c(c2)C(=O)c2cc(O)c(O)cc2C3=O)cc1"
44

Let us now turn to "CC(C)c1ccc(Sc2ccc3c(c2)C(=O)c2cc(O)c(O)cc2C3=O)cc1"
24

What do we get for "O=C1c2ccccc2C(=O)c2cc(O)c(O)cc21" ?
420
